conditions used: 348.15 K; 101.33 kPa; Liquid; Cone and plate viscometry
Answer each item with its documented viscosity.
Respond with the bare value in mPa·s.

Reported viscosity, compound CC[S+](C)CC.O=S(=O)([N-]S(=O)(=O)C(F)(F)F)C(F)(F)F [diethylmethylsulfonium bis[(trifluoromethyl)sulfonyl]imide] : ____ 10

So what's the measured viscosity for this one? CC[S+](CC)CC.O=S(=O)([N-]S(=O)(=O)C(F)(F)F)C(F)(F)F [triethylsulfonium bis((trifluoromethyl)sulfonyl)imide] 8.5

I'd like to know its viscosity. The compound in question is CCCC[N+](C)(CCCC)CCCC.O=S(=O)([N-]S(=O)(=O)C(F)(F)F)C(F)(F)F [tributylmethylammonium bis((trifluoromethyl)sulfonyl)imide] 34

Form field: reported viscosity of CCCC[N+](C)(C)C.O=S(=O)([N-]S(=O)(=O)C(F)(F)F)C(F)(F)F [butyltrimethylammonium bis(trifluoromethylsulfonyl)imide] 16.7

###

conditions used: 288.15 K; 101.33 kPa; Liquid; Vibrating tube method
Provide the reported mass density of each item.
Output spec: scalar in kg/m3, unitless text.

Reported mass density for CC[S+](CC)CC.O=S(=O)([N-]S(=O)(=O)C(F)(F)F)C(F)(F)F [triethylsulfonium bis((trifluoromethyl)sulfonyl)imide] : what is it? 1472

Which mass density is listed for CC[S+](C)CC.O=S(=O)([N-]S(=O)(=O)C(F)(F)F)C(F)(F)F [diethylmethylsulfonium bis[(trifluoromethyl)sulfonyl]imide] ? 1512.2

Fill in the blank: the reported mass density of CCCC[N+](C)(CCCC)CCCC.O=S(=O)([N-]S(=O)(=O)C(F)(F)F)C(F)(F)F [tributylmethylammonium bis((trifluoromethyl)sulfonyl)imide] is ____. 1271.7

What value of mass density has been recorded for this entry: CCCC[N+](C)(C)C.O=S(=O)([N-]S(=O)(=O)C(F)(F)F)C(F)(F)F [butyltrimethylammonium bis(trifluoromethylsulfonyl)imide] 1403.2
